Cited source for all entries: patent US20210169980A1

TGT: [..]1 (human, UniProt Q9H0R8 1-117)
Sequence (Q9H0R8 whole entry): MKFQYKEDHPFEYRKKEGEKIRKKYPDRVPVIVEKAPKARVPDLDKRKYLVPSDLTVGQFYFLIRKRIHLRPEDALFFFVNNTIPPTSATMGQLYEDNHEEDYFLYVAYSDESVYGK
TEST_DETAILS: competition-based ITC (asterisk; legend paragraph 51)
ENDPOINT_NAME: pKd
Just so you know, pKd here is -log10 of the concentration in molar units; reply with that number alone.

Please list pKd recorded for the binder VEEEWVIVSDEEIEEARQKAPLEITEY [AnkB LIR (AnkB WT peptide, human 440 kD AnkB residues 1588-1614)]
9.54
